# ASSAYED_TARGET: MAGI2_6, Q86UL8
# Sequence (Q86UL8 1141-1229): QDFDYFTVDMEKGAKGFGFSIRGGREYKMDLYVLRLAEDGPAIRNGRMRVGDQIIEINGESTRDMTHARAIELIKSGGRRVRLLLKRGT
# PROCEDURE_DETAILS: holdup assay
# Parameters: key: below the threshold = too weak to quantify, mostly under pKd 3.1 to 4
# TEST_CONDITIONS: plain residues with an end cap or a label only (N-terminal biotin on a linker: ado-ado)

>  <BINDER>
STYCDYTIEI [FAM71C, Q8NEG0]

>  <pKd>
below the threshold

$$$$
>  <BINDER>
ELKAEDEVQI [DCHS2, Q6V1P9]

>  <pKd>
below the threshold

$$$$
>  <BINDER>
GQNMTVSVVI [PRLHR, P49683]

>  <pKd>
below the threshold

$$$$
>  <BINDER>
DLLGGGSDSI [TNRC6B, Q9UPQ9]

>  <pKd>
below the threshold

$$$$
>  <BINDER>
KSRPENGTVC [TMEM178B, H3BS89]

>  <pKd>
below the threshold

$$$$
>  <BINDER>
SRPHTNETSL [MCC, P23508]

>  <pKd>
3.8

$$$$
>  <BINDER>
GSQSQVETEA [FKBP4, Q02790]

>  <pKd>
below the threshold

$$$$
>  <BINDER>
FHSIKQSTAV [CRHR1, P34998]

>  <pKd>
3.83

$$$$
>  <BINDER>
PDSYHRRDFW [U2AF2, P26368]

>  <pKd>
below the threshold

$$$$
>  <BINDER>
VCMGDHWFDV [PRKN, O60260]

>  <pKd>
4.19

$$$$
>  <BINDER>
GNDPDRGTSI [GRID2, O43424]

>  <pKd>
3.58

$$$$
